- Protocol summary: logP determination by HPLC on a reversed-phase column (C18), EEC Directive 79/831 Annex V.A8
- Type: physicochemical
- Experimental conditions: LC-MS in the acidic range, pH 2,7, 0,1 % aqueous formic acid and acetonitrile, 55°C, read-out: logP (HCOOH)
Below, each entry is listed with its recorded chromatographic logP.

| Cpd smiles | chromatographic logP |
| --- | --- |
| Cn1c(-c2c(Cl)c3ccc(Cl)cc3n2C)nc2cc(C(F)(F)F)ncc21 | 4.23 |
| CCSc1c(-c2nc3cc(C(F)(F)F)ncc3n2C)n(C)c2cc(Cl)ccc12 | 4.51 |
| CCS(=O)(=O)c1c(-c2nc3cc(C(F)(F)F)ncc3n2C)n(C)c2cc(Cl)ccc12 | 3.11 |
